- TARGET DESC: CYP21 (steroid 21-hydroxylase) (Homo sapiens, UniProt P08686)
- Sequence (P08686 whole entry): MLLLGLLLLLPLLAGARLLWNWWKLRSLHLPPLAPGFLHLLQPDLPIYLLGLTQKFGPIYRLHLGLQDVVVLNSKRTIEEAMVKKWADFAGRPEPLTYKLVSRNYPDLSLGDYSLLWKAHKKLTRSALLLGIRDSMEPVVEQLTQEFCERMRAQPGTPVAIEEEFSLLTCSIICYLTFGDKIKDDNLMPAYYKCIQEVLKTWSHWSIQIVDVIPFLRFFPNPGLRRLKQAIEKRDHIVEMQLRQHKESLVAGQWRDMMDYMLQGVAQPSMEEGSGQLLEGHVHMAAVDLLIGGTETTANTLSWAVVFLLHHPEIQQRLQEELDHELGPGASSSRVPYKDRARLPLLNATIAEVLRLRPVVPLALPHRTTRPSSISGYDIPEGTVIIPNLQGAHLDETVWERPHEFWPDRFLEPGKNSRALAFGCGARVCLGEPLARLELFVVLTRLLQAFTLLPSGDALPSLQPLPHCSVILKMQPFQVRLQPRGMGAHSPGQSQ
- TEST SUMMARY: Inhibition of human CYP21 transfected in HEK293 cells assessed as decrease in conversion of progesterone to 11-deoxycorticosterone preincubated for 5 hrs followed by progesterone addition measured after 20 hrs by ELISA
- Assay type: cell-based
- Design: concentration or dose not given beside the values
- CONDITION INFO: HEK293 cells transfected with human CYP21, probe progesterone
REPORTED METRIC: inhibition at 20 h

INSERT INTO assay_data (molecule, observed_result) VALUES
  ('C[C@]12CC/C(=N\O)C=C1C(F)C[C@@H]1[C@@H]2CC[C@]2(C)C(c3cccnc3)=CC[C@@H]12 (some centres undefined)', '10 to 50%'),
  ('COc1cncc(C2=CC[C@H]3[C@@H]4CC=C5C[C@H](NC(=O)C6CC6)CC[C@]5(C)[C@H]4CC[C@]23C)c1', '≥ 50%'),
  ('CC(=O)NC1CC[C@@]2(C)C(CC[C@@H]3[C@@H]2CC[C@]2(C)C(c4cccnc4)=CC[C@@H]32)C1C (some centres undefined)', '< 10%'),
  ('C[C@]12CC[C@H]3[C@@H](C=CC4=C(O)C(=O)CC[C@@]43C)C1=CC=C2c1cccnc1', '≥ 50%'),
  ('Cc1cncc(C2=CC=C3[C@@H]4CCC5CC(=O)NCC[C@]5(C)[C@H]4CC[C@]23C)c1 (some centres undefined)', '≥ 50%'),
  ('C#CC1(O)CC[C@@]2(C)C(CC[C@@H]3[C@@H]2CC[C@]2(C)C(c4cccnc4)=CC[C@@H]32)C1 (single isomer, unassigned)', '10 to 50%'),
  ('CC(=O)N[C@@H]1CC[C@@]2(C)C(=CC[C@@H]3[C@@H]2CC[C@]2(C)C(c4cncc(F)c4)=CC[C@@H]32)C1', '≥ 50%'),
  ('CNC1CC[C@@]2(C)[C@@H](CC[C@@H]3[C@@H]2CC[C@]2(C)C(c4cccnc4)=CC[C@@H]32)C1 (some centres undefined)', '10 to 50%'),
  ('CC(=O)N(C)[C@H]1CC[C@@]2(C)C(CC[C@@H]3[C@@H]2CC[C@]2(C)C(c4cccnc4)=CC[C@@H]32)C1 (some centres undefined)', '10 to 50%'),
  ('C[C@]12CC[C@H](O)CC1=CC[C@@H]1[C@@H]2CC[C@]2(C)C(c3cncc(C(F)F)c3)=CC[C@@H]12', '≥ 50%'),
  ('C[C@]1(O)CC[C@@]2(C)C(=CC[C@@H]3[C@@H]2CC[C@]2(C)C(c4cncc(F)c4)=CC[C@@H]32)C1', '10 to 50%'),
  ('CCc1ccncc1C1=CC=C2[C@@H]3CCC4CC(=O)NCC[C@]4(C)[C@H]3CC[C@]12C (some centres undefined)', '10 to 50%'),
  ('CCOc1cncc(C2=CC[C@H]3[C@@H]4CC=C5N(C)C(=O)C[C@]5(C)[C@H]4CC[C@]23C)c1', '10 to 50%'),
  ('C[C@]12CC[C@H](O)CC1=CC[C@@H]1[C@@H]2CC[C@]2(C)C(c3cncc(C#N)c3)=CC[C@@H]12', '10 to 50%');
